The reader will find reported inhibition values listed item by item below.
- target_desc: Glucose transporter (Leishmania mexicana) (UniProt O61059)
- test: ST_JUDE_LEISH: Cytotoxicity at 2uM final concentration against transgenic Leishmania Mexicana promastigotes LmGT2 that are glucose transport deficient and complemented with the L. Mexicana glucose transporter 2. Activity is measured by DNA content using SYBR green in vitro
- Type: functional
Response body: numeric value in %, unit text excluded.

{"molecule": "CC[C@H](C)CNC(=O)c1cncc(-c2ccc(CNCC3CNCCCO3)cc2)c1 (stereo not given in full)", "inhibition / %": -0.99}

Please examine the following record next.
GET /value?item= `COC(=O)c1cccc(NC(=O)NC2CCN(c3ccnc(NCc4ccc(F)cc4)n3)CC2)c1` &field=inhibition returns -0.54

###

- target_desc: Solute carrier family 2, facilitated glucose transporter member 1 (Homo sapiens)
- test: ST_JUDE_LEISH: Cytotoxicity at 2uM final concentration against transgenic Leishmania Mexicana promastigotes LmGLUT1 that are glucose transport deficient and complemented with the human glucose transporter GLUT1. Activity is measured by DNA content using SYBR green in vitro
- Type: functional
readout: inhibition (%)
Response body: numeric value in %, unit text excluded.

// solved cases for inhibition follow
{"compound": "COc1ccc(NC(C)C(=O)Nc2ccc(Br)cc2)cc1S(=O)(=O)N1CCCCC1 (centres undefined)", "target_desc": "Solute carrier family 2, facilitated glucose transporter member 1 (Homo sapiens)", "measurement_units": "%", "inhibition": -1}
{"compound": "CC(C)Oc1ccc(N2CCN(CCCCNC(=O)c3ccc(NC(=O)c4ccc(Cl)cc4)cc3)CC2)c(OC(C)C)c1", "target_desc": "Solute carrier family 2, facilitated glucose transporter member 1 (Homo sapiens)", "measurement_units": "%", "inhibition": 1.62}
{"compound": "Nc1nccc2ccc(-c3ccncc3)cc12", "target_desc": "Solute carrier family 2, facilitated glucose transporter member 1 (Homo sapiens)", "measurement_units": "%", "inhibition": 5.87}
{"compound": "CC1CN(Cc2csc(Nc3ccccc3)n2)CC(C)O1 (centres undefined)", "target_desc": "Solute carrier family 2, facilitated glucose transporter member 1 (Homo sapiens)", "measurement_units": "%", "inhibition": -0.51}
{"compound": "CCCOc1ccc(OCCCON2C(=N)N=C(N)NC2(C)C)cc1", "target_desc": "Solute carrier family 2, facilitated glucose transporter member 1 (Homo sapiens)", "measurement_units": "%", "inhibition": 1.05}
{"compound": "Cc1nc(N)nc(N)c1CCCOc1cccc(Cl)c1", "target_desc": "Solute carrier family 2, facilitated glucose transporter member 1 (Homo sapiens)", "measurement_units": "%", "inhibition": 7.39}
{"compound": "O=C(Nc1cccc(-c2csc(-c3nc4ccccc4[nH]3)c2)c1)c1ccncc1", "target_desc": "Solute carrier family 2, facilitated glucose transporter member 1 (Homo sapiens)", "measurement_units": "%", "inhibition": 11.6}
{"compound": "CCc1ccc(S(=O)(=O)Nc2ccc(CCN(C)C3CCN(C)CC3)cc2)cc1", "target_desc": "Solute carrier family 2, facilitated glucose transporter member 1 (Homo sapiens)", "measurement_units": "%", "inhibition": 3.75}

GET /value?item= `Cn1c(=N)n(CC(=O)OCc2ccc(OCc3ccccc3)cc2)c2ccccc21` &field=inhibition returns 2.99

GET /value?item= `COc1cc(C=NNc2ccnc3cc(Cl)ccc23)ccc1O` &field=inhibition returns 2.02

GET /value?item= `COc1ccc2nc(-c3cc(-c4ccc(NC(=O)CN5CCOCC5)cc4)cnc3N)[nH]c2c1` &field=inhibition returns 17.5

GET /value?item= `CCCCNC[C@@H](O)[C@H](Cc1ccccc1)NC(=O)c1cc(NCC)cc(N2CCCCS2(=O)=O)c1` &field=inhibition returns 4.19

GET /value?item= `CC(C)CCN1CCC(Oc2ccc(NC(=O)c3ccccc3)cc2Cl)CC1` &field=inhibition returns 1.25

GET /value?item= `O=C(NCc1ccc(C(=O)NCc2cccc3ccccc23)cc1)c1ccc(O)c(-c2ccc(Cl)c(Cl)c2)c1` &field=inhibition returns 0.64

GET /value?item= `Nc1nc(N)c2c(Sc3ccc(F)cc3)cccc2n1` &field=inhibition returns 6.11

GET /value?item= `Cc1cc(-c2c[nH]c3ncc(-c4cccc5ncccc45)cc23)ccc1C(=O)O` &field=inhibition returns 0.89

GET /value?item= `CCOc1cc(C)ccc1N1CCN(CCN2CCC(NC(=O)c3ccc(-c4ccc(C#N)cc4)cc3)CC2)CC1` &field=inhibition returns 1.65

GET /value?item= `COC(=O)c1c(NC(=O)c2cccc(C(F)(F)F)c2)sc2c1CCN(Cc1ccccc1)C2` &field=inhibition returns 1.14

GET /value?item= `O=C(Nc1cccc(C(F)(F)F)c1)c1cccc2nc(C(F)(F)F)[nH]c12` &field=inhibition returns 19.4

GET /value?item= `NC(=O)c1cccc(Nc2nccc(Nc3ccc(Oc4ccc5ccccc5c4)cc3)n2)c1` &field=inhibition returns 5.67

###

- target_desc: Glucose transporter (Leishmania mexicana)
- test: ST_JUDE_LEISH: Cytotoxicity at 2uM final concentration against transgenic Leishmania Mexicana promastigotes LmGT2 that are glucose transport deficient and complemented with the L. Mexicana glucose transporter 2. Activity is measured by DNA content using SYBR green in vitro
- Type: functional
readout: inhibition (%)
Response body: numeric value in %, unit text excluded.

// solved cases for inhibition follow
{"entry_smiles": "C(=NN=c1cc(-c2ccccc2)[nH]c2ccccc12)c1cccnc1", "inhibition, %": 6.62}
{"entry_smiles": "O=C(C=Cc1ccc(Cl)c(Cl)c1)NCCCCCN1CCC(CCCNS(=O)(=O)c2ccc(Br)cc2)CC1", "inhibition, %": 4.73}
{"entry_smiles": "CCN(CC)CCN(Cc1ccc(-c2ccc(C(F)(F)F)cc2)cc1)C(=O)Cn1c(CCc2cc(F)cc(F)c2)nc(=O)c2ccccc21", "inhibition, %": 1.47}

GET /value?item= `COc1cc(C(=O)Nc2cccc(-c3nc4ccccc4[nH]3)c2)cc(OC)c1OC` &field=inhibition returns -3.56

GET /value?item= `CC1(C)NC(N)=NC(=N)N1OCC1CCCCC1` &field=inhibition returns 0.75

GET /value?item= `CN1CCN(c2ccnc3ccc(NC(=O)Cc4ccc(-c5ccncc5)c5ccccc45)cc23)CC1` &field=inhibition returns -0.2

GET /value?item= `COc1ccc(Nc2nccc(NCCNC(=O)c3cc4ccccc4s3)n2)cc1` &field=inhibition returns -0.64

GET /value?item= `CCCN1CCN(c2ccccc2NS(=O)(=O)c2ccc(C(=O)Nc3ccc(Cl)cc3)cc2)CC1` &field=inhibition returns -1.54

GET /value?item= `CN(c1ccc2c(c1)nc(NC(=O)C1(c3cc(F)ccc3F)CC1)n2C)c1ccnc(Nc2cccc(CS(C)(=O)=O)c2)n1` &field=inhibition returns -1.29

###

The reader will find reported inhibition values listed item by item below.
- target_desc: Glucose transporter (Leishmania mexicana)
- test: ST_JUDE_LEISH: Cytotoxicity at 2uM final concentration against transgenic Leishmania Mexicana promastigotes LmGT2 that are glucose transport deficient and complemented with the L. Mexicana glucose transporter 2. Activity is measured by DNA content using SYBR green in vitro
- Format: functional
Response body: numeric value in %, unit text excluded.

// solved cases for inhibition follow
{"entry_smiles": "O=C(c1cccs1)N(Cc1cccc(-c2ccc(CNCCc3ccccc3)cc2)c1)C1CCN(Cc2ccccc2)CC1", "readout": "inhibition", "val": 9.34}
{"entry_smiles": "COc1ccc(CNCCCCCNCc2ccc(Cl)c(Cl)c2)cc1Cl", "readout": "inhibition", "val": 1.38}
{"entry_smiles": "Cc1ccccc1Nc1nc(Nc2ccccc2)c2ccccc2n1", "readout": "inhibition", "val": 13}

I looked up `NCc1cccc(-c2ccccc2CNC2CCN(Cc3ccccc3)CC2)c1` and its inhibition for Glucose transporter (Leishmania mexicana) was 6.92

I looked up `C[C@H]1CN(Cc2cccc(-c3cc(CNC(=O)c4cccc(CC5CCN(C)CC5)c4)ccc3F)c2)CCN1C` and its inhibition for Glucose transporter (Leishmania mexicana) was -3.42

I looked up `O=C(/C=C/c1ccc(Cl)c(Cl)c1)NCCCCCN1CCC(NC(=O)Nc2cccc(Cl)c2Cl)CC1` and its inhibition for Glucose transporter (Leishmania mexicana) was 6

I looked up `CCC[C@@H]([C@@H](CC1CCCCC1)C(=O)N[C@H](C(=O)Nc1ccccn1)[C@H](C)CC)N(O)C=O` and its inhibition for Glucose transporter (Leishmania mexicana) was 2.88

###

- target_desc: Solute carrier family 2, facilitated glucose transporter member 1 (Homo sapiens)
- test: ST_JUDE_LEISH: Cytotoxicity at 2uM final concentration against transgenic Leishmania Mexicana promastigotes LmGLUT1 that are glucose transport deficient and complemented with the human glucose transporter GLUT1. Activity is measured by DNA content using SYBR green in vitro
- Assay type: functional
The reader will find reported inhibition values listed item by item below.
Response body: numeric value in %, unit text excluded.

// solved cases for inhibition follow
{"compound": "Cc1cc(N)c2cc(NC(=O)CCC(=O)Nc3ccc4nc(C)cc(N)c4c3)ccc2n1", "measurement_units": "%", "val": 5.9}
{"compound": "O=C(NCCCCCN1CCCN(C(=O)Nc2ccc(F)c(C(F)(F)F)c2)CC1)C1CC1c1ccc(Cl)c(Cl)c1 (stereo not given)", "measurement_units": "%", "val": 2.53}
{"compound": "COc1cc(NC(=O)/C=C/c2cc(F)cc(F)c2F)cc(OCCN2CCC(O)(c3ccccc3)CC2)c1", "measurement_units": "%", "val": 3.43}
{"compound": "CC(C)c1sc(N2CCN(C)CC2)nc1C(=O)NCCc1cccc(Cl)c1", "measurement_units": "%", "val": 6.7}
{"compound": "Oc1ccc(CCNc2nc(N/N=C/c3ccc(Cl)cc3)nc(N3CCNCC3)n2)cc1", "measurement_units": "%", "val": -0.62}
{"compound": "Cc1ccc2c(Cc3cnc(N)nc3N)cc(C)c(N)c2n1", "measurement_units": "%", "val": 2.06}
{"compound": "COc1ccc2ncc(F)c(CCN3C4CCC3CC(NCc3cc5c(cn3)OCS5)C4)c2n1 (stereo not given)", "measurement_units": "%", "val": 32.5}
{"compound": "CN1CCCc2cc(NC(=O)C=Cc3ccc(-c4ccc(F)cc4F)o3)ccc2C1", "measurement_units": "%", "val": 6.23}

Please examine the following record next.
GET /value?item= `CNCCCn1c(N(C)C)nc2cc(-n3cnc4cc(-c5ccc(Cl)cc5)sc4c3=O)ccc21` &field=inhibition returns 3.3
